# viability, T/C listing for each entry below
Test system: 653999-131-R-J2-PDC complex spheroids, growth % test/control;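 further: spheroids exposed to agents for seven days; 100% = DMSO vehicle control viability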
Assay: Anticancer human tumor 653999-131-R-J2-PDC patient-derived lung adenocarcinoma cell line growth inhibition [AhR]
Settings: second compound 10 µM; first compound 0.316 µM; active compounds read low

molecule	viability, T/C (%)
COc1cc(C2c3cc4c(cc3C(OC3OC5COC(C)OC5C(O)C3O)C3COC(=O)C23)OCO4)cc(OC)c1O (stereo not given) + Cc1ccccc1N=Nc1ccc(NC(=O)c2ccnn2C)c(C)c1	58
COc1cccc2c1C(=O)c1c(O)c3c(c(O)c1C2=O)CC(O)(C(=O)CO)CC3OC1CC(N)C(O)C(C)O1 (stereo not given) + Cc1cncc(-c2nc(NCCc3c[nH]c4ccccc34)c3ncn(C(C)C)c3n2)c1	21.5
CC1COCCN1c1cc(C2(S(C)(=N)=O)CC2)nc(-c2ccnc3[nH]ccc23)n1 (stereo not given) + Cc1ccccc1N=Nc1ccc(NC(=O)c2ccnn2C)c(C)c1	80.8
COc1cccc2c1C(=O)c1c(O)c3c(c(O)c1C2=O)CC(O)(C(=O)CO)CC3OC1CC(N)C(O)C(C)O1 (stereo not given) + Cc1ccccc1N=Nc1ccc(NC(=O)c2ccnn2C)c(C)c1	37.2
COc1cc(C2c3cc4c(cc3C(OC3OC5COC(C)OC5C(O)C3O)C3COC(=O)C23)OCO4)cc(OC)c1O (stereo not given) + Cc1cncc(-c2nc(NCCc3c[nH]c4ccccc34)c3ncn(C(C)C)c3n2)c1	46.2

Provenance of the data: PubChem BioAssay AID1919000
